Where these numbers come from: paper PMC3045627

Catalogue of selectivity (ratio of GGTase-I to FTase IC50s) readings, one per entry.
# study-target: human farnesyltransferase (hFTase) (Homo sapiens, UniProt P49354+P49356)
# assay-info: In vitro hFTase inhibition: incorporation of [3H]FPP into recombinant H-Ras-CVLS
# Assay type: biochemical
# condition-summary: GGTase-I IC50 / hFTase IC50

Take a look at these entries with their results.
>  <compound>
Cn1cnc(S(=O)(=O)N(CCN(Cc2cncn2C)c2ccc(C#N)nc2)CC2CCN(c3ncccn3)CC2)c1 [19b]

>  <result>
>19

$$$$
>  <compound>
Cn1cnc(S(=O)(=O)N(CCN(Cc2cncn2C)c2ccc(C#N)cc2)Cc2ccncc2)c1

>  <result>
>139

$$$$
>  <compound>
Cc1c(CN(CCN(Cc2cncn2C)c2ccc(C#N)cc2)S(=O)(=O)c2cn(C)cn2)cnn1C

>  <result>
>1.9

$$$$

Switching to the query record.
// query So what does the record say about selectivity (ratio of GGTase-I to FTase IC50s) for Cn1cnc(S(=O)(=O)N(CCN(Cc2cncn2C)c2ccc(C#N)cc2Cl)CC2CCN(c3ncccn3)CC2)c1 [19a] ?
// result >18
